Values from patent US12209145B2

- Target System: PCSK9 (Homo sapiens, UniProt Q8NBP7)
- Construct: Biotinylated PCSK9 was obtained commercially; purchased
- Sequence (Q8NBP7 153-692): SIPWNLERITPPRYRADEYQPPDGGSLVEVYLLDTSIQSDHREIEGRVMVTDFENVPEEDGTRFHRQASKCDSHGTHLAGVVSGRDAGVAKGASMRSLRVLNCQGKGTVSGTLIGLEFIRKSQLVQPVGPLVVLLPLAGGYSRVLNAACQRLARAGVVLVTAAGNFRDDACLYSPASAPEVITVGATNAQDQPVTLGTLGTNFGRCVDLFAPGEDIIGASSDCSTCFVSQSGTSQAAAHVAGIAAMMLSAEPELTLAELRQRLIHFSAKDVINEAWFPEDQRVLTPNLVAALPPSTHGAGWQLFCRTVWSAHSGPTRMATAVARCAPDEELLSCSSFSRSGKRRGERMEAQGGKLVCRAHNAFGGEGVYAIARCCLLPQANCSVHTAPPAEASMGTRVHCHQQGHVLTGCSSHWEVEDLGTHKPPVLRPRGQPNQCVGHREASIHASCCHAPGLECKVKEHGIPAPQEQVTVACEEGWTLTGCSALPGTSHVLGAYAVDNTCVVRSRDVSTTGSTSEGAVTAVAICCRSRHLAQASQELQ
- Protocol Description: PCSK9 Alexa FRET Plus TR-FRET assay (displacement of AlexaFluor647 tagged cyclic peptide Reagent B)
- Format: binding
- Condition Set: 0.5 nM biotinylated PCSK9, 960 nM AF cyclic peptide Reagent B; Ki calculated from IC50 and KD of AF peptide; read-out: Ki Plus
Listed next: entries and their corresponding Ki.

// below: answered compounds
Problem: Given COc1ccc(C[C@@H]2NC(=O)[C@H]([C@@H](C)O)NC(=O)[C@@H]3[C@@H]4CCN3C(=O)[C@@H]3Cc5cn(c6ccc(F)cc56)C/C=C\CCCN(Cc5ccc(cc5)CCNC(=O)[C@]5(C)CCCN5C2=O)C(=O)CCC(=O)N[C@@H](CNC(=O)CCOCCOCC[N+](C)(C)C)C(=O)N[C@H](C)C(=O)N[C@@H](Cc2cccc(c2)CNC(=O)CO4)C(=O)N3)cc1 , state its recorded Ki.
Solution: ≤ 5.58 pM

Problem: Same lookup for COc1ccc(C[C@@H]2NC(=O)[C@H]([C@@H](C)O)NC(=O)[C@@H]3C4CCN3C(=O)[C@@H]3Cc5cn(c6ccc(F)cc56)CCCCN(Cc5ccc(cc5)CCNC(=O)[C@]5(C)CCCN5C2=O)C(=O)CCCCCC(=O)N[C@H](CNC(=O)CCC(=O)NC2OC(CO)C(O)C(O)C2O)C(=O)N[C@@H](Cc2cccc(c2)CNC(=O)CO4)C(=O)N3)cc1 (stereo partly drawn) , please.
Solution: ≤ 5.58 pM

Lab note: next compound to report on.
Problem: Given COc1ccc(C[C@@H]2NC(=O)[C@H]([C@@H](C)O)NC(=O)[C@@H]3[C@@H]4CCN3C(=O)[C@@H]3Cc5cn(c6ccc(F)cc56)CCCCCN(Cc5ccc(cc5)CCNC(=O)[C@]5(C)CCCN5C2=O)C(=O)CCC(=O)N[C@@H](C)C(=O)N[C@H](CNC(=O)CCOCCOCC[N+](C)(C)C)C(=O)N[C@@H](Cc2cccc(c2)CNC(=O)CO4)C(=O)N3)cc1 , state its recorded Ki.
Solution: ≤ 5.58 pM
